Test: Pharmacokinetics study in rats after oral administration (plasma, LC-MS/MS)
Format: in vivo, Wistar rats
Conditions: male, Wistar, rat, plasma, po, 393 mg/kg, analyte β-CD in rat plasma; β-CD-DM group (inclusion compounds, DM:β-CD 6 mg/kg:393 mg/kg) oral; mean ± SD, n = 6
Measured Endpoint: half-life (h)
// return numeric value only (unit: h, not printed)

Q) Could you share which half-life value was measured for `OC[C@H]1O[C@@H]2O[C@H]3[C@H](O)[C@@H](O)[C@@H](O[C@H]4[C@H](O)[C@@H](O)[C@@H](O[C@H]5[C@H](O)[C@@H](O)[C@@H](O[C@H]6[C@H](O)[C@@H](O)[C@@H](O[C@H]7[C@H](O)[C@@H](O)[C@@H](O[C@H]8[C@H](O)[C@@H](O)[C@@H](O[C@H]1[C@H](O)[C@H]2O)O[C@@H]8CO)O[C@@H]7CO)O[C@@H]6CO)O[C@@H]5CO)O[C@@H]4CO)O[C@@H]3CO` ?
A) 8.21
